target: Induced myeloid leukemia cell differentiation protein Mcl-1 (Homo sapiens, UniProt Q07820); format: functional
Sequence (Q07820 whole entry): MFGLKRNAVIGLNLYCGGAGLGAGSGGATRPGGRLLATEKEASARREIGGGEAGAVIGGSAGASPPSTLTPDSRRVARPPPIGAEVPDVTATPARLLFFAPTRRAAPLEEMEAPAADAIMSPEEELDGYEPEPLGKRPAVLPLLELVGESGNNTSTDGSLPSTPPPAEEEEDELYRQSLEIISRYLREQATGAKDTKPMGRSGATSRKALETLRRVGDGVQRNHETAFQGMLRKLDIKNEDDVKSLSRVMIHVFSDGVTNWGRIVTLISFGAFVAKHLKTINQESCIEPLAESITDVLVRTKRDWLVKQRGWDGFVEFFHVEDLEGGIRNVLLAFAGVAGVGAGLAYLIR
Activity calls are given as the source filed them.
Property: IC50; scope: individual molecules

[[record]]
molecule = "O=C1/C(=C/c2ccc(O)c(O)c2)Oc2cc(O)ccc21 [SULFURETIN]"
subject_of_test = "Induced myeloid leukemia cell differentiation protein Mcl-1 (Homo sapiens, UniProt Q07820)"
reported_value = "1.53 µM (active)"

[[record]]
molecule = "COC(=O)Nc1ccc(S(=O)(=O)NCc2ccccn2)cc1"
subject_of_test = "Induced myeloid leukemia cell differentiation protein Mcl-1 (Homo sapiens, UniProt Q07820)"
reported_value = "6.18 µM (not active)"

[[record]]
molecule = "COC(=O)CSc1ncnc2c1sc1nc(-c3ccco3)c3c(c12)CC(C)(C)OC3"
subject_of_test = "Induced myeloid leukemia cell differentiation protein Mcl-1 (Homo sapiens, UniProt Q07820)"
reported_value = "4.15 µM (active)"

[[record]]
molecule = "COc1ccccc1C1C2=C(N=c3s/c(=C/c4cccc(OCC(=O)O)c4)c(=O)n31)c1ccccc1CC2 (stereo not given)"
subject_of_test = "Induced myeloid leukemia cell differentiation protein Mcl-1 (Homo sapiens, UniProt Q07820)"
reported_value = "2.51 µM (active)"


Consider the record given below.
Q) For the molecule shown here, CC1CC1C(=O)OCC(=O)Nc1ccc2[nH]c(O)nc2c1 (stereo not given) , give the reported IC50.
A) 5.94 µM (active)
